Give GI50 for every item shown.
system: A2780; test: Antiproliferative activity against human A2780 cells after 48 hrs by SRB assay; type: functional; conditions: A2780, 48 h

CC(C)(C)[Si](C)(C)O[C@@H]1CCCO[C@@H]1CO    > 100 µM
COC(=O)/C=C/[C@H]1OCCC[C@H]1O[Si](C)(C)C(C)(C)C    98 µM
CC(C)(C)[Si](C)(C)O[C@@H]1CCCO[C@@H]1/C=C\CO    > 100 µM
O=C1C[C@H]2OCCC[C@H]2O1    > 100 µM
CC(C)(C)[Si](C)(C)O[C@@H]1CCCO[C@@H]1/C=C\C(=O)OCc1ccccc1    29 µM

Turning now to a further record.
[in] Given the compound `COC(=O)/C=C/[C@H]1OCCC[C@H]1O` , what is its reported GI50?
[out] > 100 µM

---

tested on: WiDr; assay: Antiproliferative activity against human WiDr cells after 48 hrs by SRB assay; assay type: functional
Property: GI50

Some compounds with known GI50 results, for comparison:
COC(=O)/C=C\[C@H]1OCCC[C@H]1O[Si](C)(C)C(C)(C)C    38 µM
O=C(C[C@H]1OCCC[C@H]1O)OCc1ccccc1    > 100 µM
O=C(/C=C/[C@H]1OCCC[C@H]1O)OCc1ccccc1    > 100 µM
CC(C)(C)[Si](C)(C)O[C@@H]1CCCO[C@@H]1/C=C\C(=O)OCc1ccccc1    20 µM

Lab note: each compound below needs its GI50 filled in.
1. COC(=O)/C=C/[C@H]1OCCC[C@H]1O
2. O=C1C=C[C@H]2OCCC[C@H]2O1

[out]
> 100 µM
39 µM

Lab note: each compound below needs its GI50 filled in.
1. CC(C)(C)[Si](C)(C)O[C@@H]1CCCO[C@@H]1CC(=O)OCc1ccccc1
2. COC(=O)/C=C/[C@H]1OCCC[C@@H]1O[Si](C)(C)C(C)(C)C
3. CC(C)(C)[Si](C)(C)OC[C@H]1OCCC[C@H]1O[Si](C)(C)C(C)(C)C
4. CC(C)(C)[Si](C)(C)O[C@@H]1CCCO[C@@H]1/C=C/C(=O)O
5. CC(C)(C)[Si](C)(C)O[C@@H]1CCCO[C@@H]1/C=C/C(=O)OCc1ccccc1

[out]
["19 µM", "84 µM", "> 100 µM", "> 100 µM", "90 µM"]

Lab note: each compound below needs its GI50 filled in.
1. C=C[C@H]1OCCC[C@H]1O[Si](C)(C)C(C)(C)C
2. O=C1C[C@H]2OCCC[C@H]2O1
3. COC(=O)/C=C/[C@H]1OCCC[C@H]1O[Si](C)(C)C(C)(C)C
4. CC(C)(C)[Si](C)(C)O[C@@H]1CCCO[C@@H]1/C=C\CO
5. CC(C)(C)[Si](C)(C)O[C@@H]1CCCO[C@@H]1CO

[out]
> 100 µM
> 100 µM
> 100 µM
> 100 µM
> 100 µM
